# credit: patent US9694016B2

target: b-Raf (V600E) (Homo sapiens (Human), UniProt P15056, V600E); details: read-out: b-Raf IC-50; AlphaScreen, 60 min pre-incubation, reaction 3 hours at room temperature
Sequence (P15056 whole entry V600E): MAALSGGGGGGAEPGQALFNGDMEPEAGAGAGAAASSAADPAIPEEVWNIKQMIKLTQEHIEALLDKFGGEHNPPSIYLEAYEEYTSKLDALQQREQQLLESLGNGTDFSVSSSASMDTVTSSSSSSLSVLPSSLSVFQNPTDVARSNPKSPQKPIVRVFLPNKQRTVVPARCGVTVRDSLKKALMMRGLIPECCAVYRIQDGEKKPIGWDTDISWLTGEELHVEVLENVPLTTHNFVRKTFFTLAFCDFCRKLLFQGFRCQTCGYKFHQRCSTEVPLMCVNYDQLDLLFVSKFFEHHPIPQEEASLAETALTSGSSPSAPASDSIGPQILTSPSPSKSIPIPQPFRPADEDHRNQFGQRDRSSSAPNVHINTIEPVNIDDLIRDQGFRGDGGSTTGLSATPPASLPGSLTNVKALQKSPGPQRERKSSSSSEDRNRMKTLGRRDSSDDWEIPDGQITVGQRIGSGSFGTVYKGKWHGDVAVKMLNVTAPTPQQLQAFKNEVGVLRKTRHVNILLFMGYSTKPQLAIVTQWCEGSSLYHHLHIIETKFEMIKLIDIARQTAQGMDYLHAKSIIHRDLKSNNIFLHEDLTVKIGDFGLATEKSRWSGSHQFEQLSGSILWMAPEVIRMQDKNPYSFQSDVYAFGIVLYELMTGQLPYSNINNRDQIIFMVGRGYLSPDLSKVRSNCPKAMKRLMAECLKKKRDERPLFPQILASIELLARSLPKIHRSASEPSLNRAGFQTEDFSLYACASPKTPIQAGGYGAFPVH
reportedEndpoint: IC50 (nM)
Quick reminder: number only, in nM, skip the unit.

Example cases with answers are listed next.
Cc1ccc(NC(=O)c2ccnc(C(F)(F)F)c2)cc1-c1cc(NC2CCOC2)nc(N2CCOCC2)c1 (stereo not shown); 1.18
Cc1ccc(NC(=O)c2ccnc(C(F)(F)F)c2)cc1-c1cc(N2CCOCC2)nc(N2CCOCC2)c1; 0.83
CCOc1ncc(-c2cc(C(=O)Nc3cc(C(F)(F)F)ncc3F)ccc2C)cc1N1CCOCC1; 1.83

IC50 reading for "CCOc1nnc(-c2cc(C(=O)Nc3ccnc(C(C)(F)F)c3)ccc2C)cc1N1CCOCC1" : 7.72

###

Reported pIC50 values follow for various molecules
target: b-Raf (V600E) (Homo sapiens (Human), UniProt P15056, V600E); settings: read-out: b-Raf IC-50; AlphaScreen, 60 min pre-incubation, 3 hours reaction
FYI, pIC50 means -log10 of a concentration in mol per litre.

Example cases with answers are listed next.
Cc1ccc(NC(=O)c2cc(C(F)(F)F)ccn2)cc1-c1cc(N2CCOCC2)c(OCCO)nn1 [Example 586]; 9.00
Cc1ccc(NC(=O)c2ccnc(C(C)(C)C#N)c2)cc1-c1cncc(N2CCOCC2)n1 [Example 531]; 8.30

pIC50 reading for Cc1ncc(NC(=O)c2ccnc(C(C)(C)C)c2)cc1-c1cc(N2CCOCC2)n(C)c(=O)c1 [Example 507] : 7.69

pIC50 reading for Cc1ncc(C(=O)Nc2cccc(C(F)F)c2)cc1-c1cc(N2CCOCC2)c(=O)n(C)c1 [Example 445] : 7.92

pIC50 reading for CCNc1nc(-c2cc(NC(=O)c3ccnc(C4(C#N)CC4)c3)ccc2C)cc(N2CCOCC2)n1 [Example 708] : 9.30

pIC50 reading for Cc1ccc(NC(=O)c2ccccc2)cc1-c1cc(N2CCOCC2)n(C)c(=O)c1 [Example 473] : 7.92

pIC50 reading for Cc1ncc(NC(=O)c2cccc(C(F)(F)F)c2)cc1-c1cc(N2CCOCC2)nc(N2C(=O)OC[C@@H]2C)n1 [Example 781] : 7.97

pIC50 reading for CCNc1nc(-c2cc(NC(=O)c3ccnc(C(C)(C)O)c3)cnc2C)cc(N2CCOCC2)n1 [Example 723] : 7.46

###

target: b-Raf (V600E) (Homo sapiens (Human), UniProt P15056, V600E); settings: read-out: b-Raf IC-50; AlphaScreen, 60 min pre-incubation, 3 hours reaction
Reported log10(IC50) values follow for various compounds
Log scale reminder: IC50 in nM, then log10 taken.

COc1nnc(-c2cc(NC(=O)c3ccnc(C(C)(C)C#N)c3)ccc2C)cc1N1CCOCC1; 0.32

log10(IC50) reading for "Cc1ncc(NC(=O)c2ccnc(C(F)(F)F)c2)cc1-c1cc(N2CCOCC2)n(C)c(=O)c1" : 0.75

log10(IC50) reading for "Cc1ncc(NC(=O)c2ccnc(C(C)(F)F)c2)cc1-c1cc(N2CCO[C@@H](CO)C2)n(C)c(=O)c1" : 1.88

log10(IC50) reading for "Cc1ccc(NC(=O)c2ccnc(C(C)(C)C#N)c2)cc1-c1cc(N2CCOCC2)c(OC2CCOCC2)nn1" : 0.08

log10(IC50) reading for "Cc1ccc(NC(=O)c2cnnc(C(C)(C)C#N)c2)cc1-c1cc(N2CCOCC2)c(=O)n(C)n1" : 0.92

log10(IC50) reading for "CCOc1nnc(-c2cc(NC(=O)c3ccnc(C(C)(C)F)c3)ccc2C)cc1N1CCOCC1" : 0.11

log10(IC50) reading for "Cc1ccc(NC(=O)c2ccnc(C(C)(C)C#N)c2)cc1-c1cc(N2CCOC[C@@H]2C)c(=O)n(C)n1" : 0.96

log10(IC50) reading for "Cc1ccc(NC(=O)c2ccnc(C(C)(C)F)c2)cc1-c1cc(N2CCOCC2)c(OCCO)nn1" : 0.34

log10(IC50) reading for "Cc1ccc(NC(=O)c2ccnc(C(C)(F)F)c2)cc1-c1cc(N2CCOCC2)nc(N2CC(O)C2)n1" : 0.28
